Biological target: full-length beta-Catenin (Uniprot ID P35222) (Homo sapiens (Human)) (UniProt P35222)
Sequence (P35222 2-781 limits assumed): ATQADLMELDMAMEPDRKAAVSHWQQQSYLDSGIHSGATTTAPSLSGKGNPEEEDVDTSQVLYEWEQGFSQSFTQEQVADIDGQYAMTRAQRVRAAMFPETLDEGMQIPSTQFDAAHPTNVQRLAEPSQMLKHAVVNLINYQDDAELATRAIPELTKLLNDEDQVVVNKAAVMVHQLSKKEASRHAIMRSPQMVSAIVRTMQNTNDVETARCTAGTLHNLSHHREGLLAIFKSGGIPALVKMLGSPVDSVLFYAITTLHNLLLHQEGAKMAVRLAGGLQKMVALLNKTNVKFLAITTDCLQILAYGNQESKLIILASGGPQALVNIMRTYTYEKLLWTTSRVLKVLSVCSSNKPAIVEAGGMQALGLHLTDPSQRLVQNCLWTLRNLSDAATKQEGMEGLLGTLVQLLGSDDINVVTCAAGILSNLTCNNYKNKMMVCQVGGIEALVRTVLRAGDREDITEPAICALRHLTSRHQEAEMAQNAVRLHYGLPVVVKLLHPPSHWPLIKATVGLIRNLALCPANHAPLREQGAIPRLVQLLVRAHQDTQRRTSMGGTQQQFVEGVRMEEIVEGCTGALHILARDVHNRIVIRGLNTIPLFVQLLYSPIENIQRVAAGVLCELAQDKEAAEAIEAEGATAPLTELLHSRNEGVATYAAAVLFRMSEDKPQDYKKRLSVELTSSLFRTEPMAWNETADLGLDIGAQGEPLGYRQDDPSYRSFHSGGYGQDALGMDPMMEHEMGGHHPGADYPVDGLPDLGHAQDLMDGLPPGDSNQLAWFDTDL
Assay: fluorescence polarization competition; full-length beta-catenin, competitor 5FAM-TCF4 10-53 probe
pIC50: −log10 of the molar value. Starred links: 1 amine or outer side, 2 acyl side, 3 side chain; linkers in the order of their positions; H or OH if unused. Positions of bridges follow the written chain, without caps; N, C: chain ends. Non-standard residues stand in square brackets, D forms with d. Primed or numbered codes have the meaning given here. PyrS2″ = (S)-3-amino-1-((pent-4-en-1-yloxy)carbonyl)pyrrolidine-3-carboxylic acid (stapling residue), C=CCCCOC(=O)N1CC[C@@](N[*:1])(C(=O)[*:2])C1; B5(12) = 2-amino-2-(pent-4-en-1-yl)hept-6-enoic acid (two olefin side chains), C=CCCCC(CCCC=C)(N[*:1])C(=O)[*:2]; B5(19) = 2-amino-2-(pent-4-en-1-yl)hept-6-enoic acid (bis(4-pentenyl)glycine), C=CCCCC(CCCC=C)(N[*:1])C(=O)[*:2]; Phe(3-COOH) = N[C@@H](Cc1cccc(C(=O)O)c1)C(=O)O; Phe(2-CF3) = N[C@@H](Cc1ccccc1C(F)(F)F)C(=O)O; Bta = N[C@@H](Cc1csc2ccccc12)C(=O)O; αAllylPro = C=CC[C@@]1(C(=O)O)CCCN1; tBuAla = CC(C)(C)C[C@H](N)C(=O)O; 3Thi = N[C@@H](Cc1ccsc1)C(=O)O; S8 = C=CCCCCCC[C@](C)(N)C(=O)O; hSer = N[C@@H](CCO)C(=O)O; Nle = CCCC[C@H](N)C(=O)O
assay-endpoint: pIC50

// known answers, use as guide
Ac-[αAllylPro]D[tBuAla][B5(19)]DDAAF[hSer][S8][Phe(2-CF3)][Bta]Q-NH2 (staple 1-4, 4-11) [I-1397]
7.32
Ac-[αAllylPro]D[Nle][B5(12)]DDAAFL[PyrS2″][3Thi][Bta]L-NH2 (staple 1-4, 4-11) [I-1412]
7.10
Ac-[αAllylPro]D[Nle][B5(12)]DDAAFL[PyrS2″][3Thi][Bta]L-NH2 (staple 1-4, 4-11; also: staple isomer, earlier eluting HPLC peak) [I-1411]
6.96

(1) Ac-[αAllylPro]DL[B5(12)]D[Phe(3-COOH)]AAF[Nle][PyrS2″][3Thi][Bta]Q-NH2 (staple 1-4, 4-11) [I-1407]
(2) Ac-[αAllylPro]D[tBuAla][B5(12)]DDAAFL[PyrS2″][3Thi][Bta]L-NH2 (staple 1-4, 4-11) [I-1409]
## Task Min pIC50? 1 | 2 Please respond with the label that marks your chosen entry.
## Result 2
(2: 7.13, 1: 8.30)
